Test system: TAB113
METHOD: qHTS profiling for inhibitors of Plasmodium falciparum proliferation (AID 504749); also: nearly all actives have a fitted effect of over 60% in size; also: potency is read from the fitted curve at half-maximal effect
CONDITION_INFO: P. falciparum in erythrocytes, SYBR Green DNA, 72 h; series mostly up to 12.8 µM
Inconclusive results are not listed. Active and inactive are the calls of the source. Calls follow the shape of the dose curve; as a rule, active = well fitted inhibition curve with a large enough effect; inconclusive = small, poorly fitted or top-dose-only effect; inactive = flat fitted curve, though single readings scatter. Peptide text beside a SMILES is read from it.
EXPERIMENTAL_ENDPOINT: Potency

Example results:
COMPOUND	TARGET_OF_ASSAY	RECORDED_RESULT
C/C1=C2N=C(/C=C3N=C(/C(C)=C4\[N-]C(C)(C5N=C1C(C)(CCC(=O)NCC(C)OP(=O)([O-])O[C@H]1C(O)C(n6cnc7cc(C)c(C)cc76)O[C@@H]1CO)C5CC(N)=O)C(C)(CC(N)=O)C4CCC(N)=O)C(C)(CC(N)=O)C\3CCC(N)=O)C(C)(C)C/2CCC(N)=O.[CH2-]C1OC(n2cnc3c(N)ncnc32)C(O)C1O.[Co] (some centres not stated)	TAB113	inactive
CO[C@]12C(COC(N)=O)C3=C(C(=O)C(C)=C(N)C3=O)N1CC1NC12 (some centres not stated)	TAB113	891 nM (active)
NS(=O)(=O)c1cc2c(cc1Cl)N[C@@H](CC1CCCC1)NS2(=O)=O	TAB113	inactive
CC(=O)[C@@H]1CC[C@@H]2[C@@H]3C[C@H](C)C4=CC(=O)CC[C@@]4(C)[C@H]3[C@H](O)C[C@]21C	TAB113	inactive

Return reported Potency values for all items listed beneath this line.
1. COC(=O)C(Cc1ccccc1)NC(=O)C(N)CC(=O)O (stereo not drawn) (H-Asp-Phe-OMe; configuration not given here)
2. NC(=O)N[C@H]1NC(=O)NC1=O

Reply:
1. inactive
2. inactive

Ask: Which Potency value is on record for `Cc1ccc2c(c1)c1c3n2CCN[C@H]3CCC1` ?
Reply: inactive

###

System: CP211
METHOD: qHTS profiling for inhibitors of Plasmodium falciparum proliferation (AID 504749); also: nearly all actives have a fitted effect of over 60% in size
CONDITION_INFO: P. falciparum in erythrocytes, SYBR Green DNA, 72 h; series mostly up to 12.8 µM
Results filed as inconclusive are left out. Activity calls are given as the source filed them. Calls come from the whole dose curve; as a rule, active = well fitted inhibition curve with a large enough effect; inconclusive = small, poorly fitted or top-dose-only effect; inactive = flat fitted curve, though single readings scatter.
Output constraint: value belongs to active, inactive

Completed entries (count: 5):
COMPOUND	DISCRETE_LABEL
CO[C@]1(NC(=O)C2SC(=C(C(N)=O)C(=O)O)S2)C(=O)N2C(C(=O)O)=C(CSc3nnnn3C)CS[C@H]21 (stereo partly drawn)	inactive
Nc1nc(NC2CC2)c2ncn([C@H]3C=C[C@@H](CO)C3)c2n1	inactive
COc1ccccc1OC[C@H](O)CO	inactive
CC(C)(C)NC[C@H](O)COc1cccc2c1CCC(=O)N2	inactive
COc1ccc2cc1Oc1ccc(cc1)CC1c3c(cc4c(c3Oc3cc5c(cc3OC)CCN(C)C5C2)OCO4)CCN1C (stereo not drawn)	active

Ask: Could you kindly confirm the outcome this assay logged for CCOC(=O)C1=CC(OC(CC)CC)C(NC(C)=O)C(N)C1 (stereo not drawn) ?
Reply: inactive

Ask: `O=C1O[C@H](CN2CCOCC2)CN1/N=C\c1ccc([N+](=O)[O-])o1` ?
Reply: inactive

Ask: `C[C@H](Oc1ccccc1)C(=O)N[C@@H]1C(=O)N2[C@@H]1SC(C)(C)[C@@H]2C(=O)O` ?
Reply: inactive

Ask: `COCC(=O)Nc1c(I)c(C(=O)NC[C@@H](O)CO)c(I)c(C(=O)N(C)C[C@@H](O)CO)c1I` ?
Reply: inactive

Ask: `CN(C)CCOC(=O)[C@@H](c1ccccc1)C1(O)CCCC1` ?
Reply: inactive
